The measured values listed here are drawn from patent US4720495A.

Test system: Pseudomonas aeruginosa NCTC 10490
Experiment: minimal inhibitory concentration, in vitro antibacterial activity
Format: cell-based
Details: NCTC10490, 37° C., 20 hours
Metric: MIC (mg/L)

Consider the worked cases shown below.
Compound: CC1C=Cc2c(N3CCN(C)CC3)c(Cl)cc3c(=O)c(C(=O)O)cn1c23 (centres unmarked)
Output Unit: mg/L
Val: 1.56
//
Compound: CC1CN(c2c(Cl)cc3c(=O)c(C(=O)O)cn4c3c2C=CC4C)CCN1 (centres unmarked)
Output Unit: mg/L
Val: 1.56
//
Compound: CC1CCc2c(N3CCN(C)CC3)c(F)cc3c(=O)c(C(=O)O)cn1c23 (centres unmarked) [OPC-7241, reference compound]
Output Unit: mg/L
Val: 3.13
//
Compound: CC1C=Cc2c(N3CCNCC3)c(Cl)cc3c(=O)c(C(=O)O)cn1c23 (centres unmarked)
Output Unit: mg/L
Val: 0.78
//
Compound: CC1CC(=O)c2c(N3CCNCC3)c(Cl)cc3c(=O)c(C(=O)O)cn1c23 (centres unmarked)
Output Unit: mg/L
Val: 0.78

P. CC1COc2c(N3CCN(C)CC3)c(F)cc3c(=O)c(C(=O)O)cn1c23 (centres unmarked) [Ofloxacin, reference compound]
Q. CC1CC(=O)c2c(N3CCNC(C)(C)C3)c(F)cc3c(=O)c(C(=O)O)cn1c23 (centres unmarked)
Could you kindly indicate whether P or Q has the higher MIC value? Reply with the label of the item you choose.
Q

====

System: Proteus vulgaris ATCC 13315 | Read-out: MIC
Metric: MIC (µg/mL)

Molecule: CC1CN(c2c(F)cc3c(=O)c(C(=O)O)cn4c3c2C=CC4C)CCN1 (stereo not shown)
Metric: MIC
Val: 0.1

a. CC1CC(=O)c2c(N3CCN(C)CC3)c(Cl)cc3c(=O)c(C(=O)O)cn1c23 (stereo not shown)
b. CC1CC(=O)c2c(N3CCN(C)CC3)c(F)cc3c(=O)c(C(=O)O)cn1c23 (stereo not shown)
Could you kindly indicate whether a or b has the higher MIC value? Reply with the label of the item you choose.
b
(b: 0.2 µg/mL, a: 0.1 µg/mL)

====

System: Klebsiella pneumoniae PCI 602 | Read-out: MIC
Metric: MIC (µg/mL)

Consider the worked cases shown below.
Molecule: CC1CN(c2c(F)cc3c(=O)c(C(=O)O)cn4c3c2C=CC4C)CCN1 (centres unmarked)
Metric: MIC
Val: 0.1
--
Molecule: CCC1CC(=O)c2c(N3CCN(C)CC3)c(F)cc3c(=O)c(C(=O)O)cn1c23 (centres unmarked)
Metric: MIC
Val: 0.2

A. CC1CC(=O)c2c(N3CCN(CCO)CC3)c(F)cc3c(=O)c(C(=O)O)cn1c23 (centres unmarked)
B. CC1C=Cc2c(N3CCNC(C)(C)C3)c(F)cc3c(=O)c(C(=O)O)cn1c23 (centres unmarked)
Could you tell me which of these two has the smaller MIC figure? First: A Second: B Reply with the label of the item you choose.
A
(A: 0.1 µg/mL, B: 0.2 µg/mL)

====

System: Streptococcus faecalis AHU 1085 | Read-out: MIC
Metric: MIC (µg/mL)

Compound: CC1CC(=O)c2c(N3CCNC(C)(C)C3)c(F)cc3c(=O)c(C(=O)O)cn1c23 (stereo not shown) [Compound 15]
System Name: Streptococcus faecalis AHU 1085
MIC (µg/mL): 3.13
//
Compound: CC1C=Cc2c(N3CCNCC3)c(Cl)cc3c(=O)c(C(=O)O)cn1c23 (stereo not shown) [Compound 22]
System Name: Streptococcus faecalis AHU 1085
MIC (µg/mL): 0.78

A. CC1CN(c2c(F)cc3c(=O)c(C(=O)O)cn4c3c2C(=O)CC4C)CCN1 (stereo not shown) [Compound 16]
B. CC1C=Cc2c(N3CCN(C)CC3)c(F)cc3c(=O)c(C(=O)O)cn1c23 (stereo not shown) [Compound 19]
Could you kindly indicate whether A or B has the higher MIC value? Reply with the label of the item you choose.
B

====

System: Bacillus subtilis ATCC 6633 | Read-out: MIC
Metric: MIC (µg/mL)

Compound: CC1CC(=O)c2c(N3CCN(C)CC3)c(F)cc3c(=O)c(C(=O)O)cn1c23 (stereo not drawn) [Compound 3]
Output Unit: µg/mL
MIC: 0.1

P. CC1CC(=O)c2c(N3CCN(C)CC3)c(F)cc3c(=O)c(C(=O)O)cn1c23.Cl.O (stereo not drawn) [Compound 35]
Q. CC1CN(c2c(F)cc3c(=O)c(C(=O)O)cn4c3c2C=CC4C)CCN1C (stereo not drawn) [Compound 25]
Could you tell me which of these two has the smaller MIC figure? First: P Second: Q Reply with the label of the item you choose.
P
(P: 0.1 µg/mL, Q: 0.2 µg/mL)

====

Test: enteral absorbability, serum concentration after oral administration to mice
Assay type: in vivo
Settings: mouse, 2 hr., 50 mg/kg orally, fasted male ICR mice
Metric: concentration at 2 h (ng/mL)

Compound: CCN1CCN(c2c(Cl)cc3c(=O)c(C(=O)O)cn4c3c2C(=O)CC4C)CC1 (stereo not drawn) [Compound 9]
Val: 7700
//
Compound: CC1CN(c2c(F)cc3c(=O)c(C(=O)O)cn4c3c2C(=O)CC4C)CC(C)N1 (stereo not drawn) [Compound 11]
Val: 7200
//
Compound: CC1CN(c2c(Cl)cc3c(=O)c(C(=O)O)cn4c3c2C=CC4C)CCN1 (stereo not drawn) [Compound 31]
Val: 8400
//
Compound: CC1CN(c2c(F)cc3c(=O)c(C(=O)O)cn4c3c2C=CC4C)CCN1 (stereo not drawn) [Compound 29]
Val: 9800

P. CC1CC(=O)c2c(N3CCN(C)CC3)c(F)cc3c(=O)c(C(=O)O)cn1c23 (stereo not drawn) [Compound 3]
Q. CC1CCc2c(N3CCN(C)CC3)c(F)cc3c(=O)c(C(=O)O)cn1c23 (stereo not drawn) [OPC-7241, reference compound]
Could you tell me which of these two has the smaller concentration at 2 h figure? First: P Second: Q Reply with the label of the item you choose.
Q

====

Tested on: Proteus vulgaris ATCC 13315
Test: minimal inhibitory concentration, in vitro antibacterial activity
Format: cell-based
Settings: ATCC13315, 37° C., 20 hours
Metric: MIC (mg/L)

Molecule: CC1C=Cc2c(N3CCNCC3)c(Cl)cc3c(=O)c(C(=O)O)cn1c23 (centres unmarked)
Metric: MIC
Val: 0.1
//
Molecule: CC1C=Cc2c(N3CCNCC3)c(F)cc3c(=O)c(C(=O)O)cn1c23 (centres unmarked)
Metric: MIC
Val: 0.2
//
Molecule: CC1CN(c2c(F)cc3c(=O)c(C(=O)O)cn4c3c2C=CC4C)CCN1C (centres unmarked)
Metric: MIC
Val: 0.1
//
Molecule: CC1CN(c2c(F)cc3c(=O)c(C(=O)O)cn4c3c2C=CC4C)CC(C)N1C (centres unmarked)
Metric: MIC
Val: 0.1
//
Molecule: CC1C=Cc2c(N3CCN(C)CC3)c(Cl)cc3c(=O)c(C(=O)O)cn1c23 (centres unmarked)
Metric: MIC
Val: 0.1
//
Molecule: CC1CC(=O)c2c(N3CCNCC3)c(Cl)cc3c(=O)c(C(=O)O)cn1c23 (centres unmarked)
Metric: MIC
Val: 0.1
//
Molecule: CC1COc2c(N3CCN(C)CC3)c(F)cc3c(=O)c(C(=O)O)cn1c23 (centres unmarked) [Ofloxacin, reference compound]
Metric: MIC
Val: 0.1
//
Molecule: CC1CC(=O)c2cc(F)cc3c(=O)c(C(=O)O)cn1c23 (stereo not drawn) [Compound α, reference compound]
Metric: MIC
Val: 25
//
Molecule: CC1CN(c2c(F)cc3c(=O)c(C(=O)O)cn4c3c2C(=O)CC4C)CCN1C.Cl.O (centres unmarked)
Metric: MIC
Val: 0.1
//
Molecule: CC1C=Cc2c(N3CCN(C)CC3)c(F)cc3c(=O)c(C(=O)O)cn1c23.Cl (centres unmarked)
Metric: MIC
Val: 0.1
//
Molecule: CC1CN(c2c(Cl)cc3c(=O)c(C(=O)O)cn4c3c2C=CC4C)CCN1 (centres unmarked)
Metric: MIC
Val: 0.1

====

Test system: Klebsiella pneumoniae PCI 602
Metric: MIC (mg/L)

P. CC1CN(c2c(Cl)cc3c(=O)c(C(=O)O)cn4c3c2C=CC4C)CCN1 (stereo not shown) [Compound 31]
Q. CCC1C=Cc2c(N3CCNC(C)C3)c(F)cc3c(=O)c(C(=O)O)cn1c23 (stereo not shown) [Compound 32]
Could you kindly indicate whether P or Q has the higher MIC value? Reply with the label of the item you choose.
Q

====

System: Klebsiella pneumoniae PCI 602
Metric: MIC (µg/mL)

Compound: CC1CN(c2c(F)cc3c(=O)c(C(=O)O)cn4c3c2C(=O)CC4C)CC(C)N1C.Cl.O (centres unmarked) [Compound 39]
MIC [µg/mL]: 0.1

P. CC1CC(=O)c2c(N3CCNC(C)(C)C3)c(F)cc3c(=O)c(C(=O)O)cn1c23 (centres unmarked) [Compound 15]
Q. CC1CN(c2c(F)cc3c(=O)c(C(=O)O)cn4c3c2C=CC4C)CC(C)N1C (centres unmarked) [Compound 27]
Could you kindly indicate whether P or Q has the higher MIC value? Reply with the label of the item you choose.
Q
